- measurement_target: T1, monkey IGF-1R (on COS-7 cells) (African green monkey)
- T1 construct: whole, on cells
- test_description: FACS, Cos-7 (monkey IGF1R+), Ab 5 ug/ml
The binders listed here are annotated with their MFI.
measured_parameter: MFI (MFI)

binder	measured_parameter	val
m219D6 (antibody, V domains shown, murine mAb, hybridoma CNCM I-4736, group G2) VH: QVQLQQSGPELVKPGDSVKMSCKASGYSFTSYFIHWVKQRPGQGLEWIGWIWPGDGSTKYNEKFKGKTTLTTDKSSSTAYMFLNSLTSEDSAVYFCASPMITPNYAMDYWGQGASVTVSS VL: DIQMTQTTSSLSASLGDRVTISCRASQDISKYLNWYQQQPDGTVKLLIYYTSRLHSGVPSRFSGRGSGTDYSLTISNLEQEDIATYFCQQGSTLPYTFGGGTKLEIK	MFI	114
m212A11 (antibody, V domains shown, murine mAb, hybridoma CNCM I-4773, group G2) VH: QVQLQQSGPELVKPGASVKMSCKASGYTFTSYYIHWVKQRPGQGLEWIGWIWPGDGSTKYNEKFKGKTTLTADKSSSTAYMFLSSLTSEDSAVYFCASPMITPNYAMDYWGQGASVTVSS VL: DIQMTQTTSSLSASLGDRVTISCRASQDINKYLNWYQQQPDGTVKLLIYYTSRLHSGVPSRFSGRGSGTDYSLTISNLEQEDIATYFCQQGSTLPYTFGGGTKLEIK	MFI	125
m213B10 (antibody, V domains shown, murine mAb, hybridoma CNCM I-4774, group G2) VH: QVQLQQSGSELVKPGASVKMSCKASGYTFTSYYIHWVKQRPGQGLEWIGWIWPGDGSTKYNERFKGKTTLTADKSSSTAYMFLSSLTSEDSAVYFCASPMITPNYAMDYWGQGASVTVSS VL: DIQMTQTTSSLSASLGDRVTISCRASQDISKYLNWYQQQPDGTIKLLIYYTSRLHSGVPSRFSGRGSGTDYSLTITNLEQEDIATYFCQQGSALPYTFGGGTKLEIK	MFI	122
m214F8 (antibody, V domains shown, murine mAb, hybridoma CNCM I-4775, group G2) VH: QVQLQQSGSELVKPGASVKLSCKASGYTFTSYYIHWVKQRPGQGLEWIGWIWPGDGSTKYNERFKGKTTLTADKSSSTAYMFLSSLTSEDSAVYFCASPMITPNYAMDYWGQGASVTVSS VL: DIQMTQTTSSLSASLGDRVTFSCRASQDISKYLNWYQQQPDGTIKLLIYYTSRLHSGVPSRFSGRGSGTDYSLTITNLEQEDIATYFCQQGSALPYTFGGGTKLEIK	MFI	132
